System: Prothrombin (Homo sapiens, UniProt P00734) | Read-out: pIC50
Keep it numeric: pIC50 is minus log10 of the concentration in mol/L.

Per the reported Prothrombin (Homo sapiens, UniProt P00734) data, N=C(N)c1ccc2[nH]c(Cc3ccccc3)cc2c1 has pIC50 of 5.85

Per the reported Prothrombin (Homo sapiens, UniProt P00734) data, N=C(N)c1ccc2[nH]c(Cc3cccc(CCc4ccccc4)c3)cc2c1 has pIC50 of 5.62

Per the reported Prothrombin (Homo sapiens, UniProt P00734) data, N=C(N)c1ccc2[nH]c(-c3ccccc3)cc2c1 has pIC50 of 4.72

Per the reported Prothrombin (Homo sapiens, UniProt P00734) data, N=C(N)c1ccc2[nH]ccc2c1 has pIC50 of 4.66

Per the reported Prothrombin (Homo sapiens, UniProt P00734) data, Cc1c(-c2ccccc2)[nH]c2ccc(C(=N)N)cc12 has pIC50 of 4.18

Hello, the source for this data is ChEMBL document CHEMBL1152106, in case you need it.
